Provenance of the data: patent US20240124417A1

Target: PD-1/PD-L1 (Homo sapiens)
Construct: TVMV protease site linker (C)
Assay: PD-1/PD-L1 Homogenous Time-Resolved Fluorescence (HTRF) binding assay
Conditions: PD-L1-His 10 nM, PD-1-Ig 20 nM
pIC50: −log10 of the molar value.
Property name: pIC50

>>> result("COCc1noc(CNCc2cc(Cl)c(OCc3cccc(-c4cccc(OCC5CCCN(C)C5)c4Cl)c3C)cc2OCc2cncc(C#N)c2)n1 (stereo not drawn) [Example 2595]")
8.70
>>> result("Cc1c(COc2cc(OCc3cncc(C#N)c3)c(CNCc3cnco3)cc2Cl)cccc1-c1cccc(OCC2CCCN(C)C2)c1Cl (stereo not drawn) [Example 2591]")
8.72
>>> result("Cc1c(COc2cc(OCc3cncc(C#N)c3)c(CN(C)Cc3csc(N)n3)cc2Cl)cccc1-c1cccc(OCCCN2CC[C@@H](O)C2)c1C [Example 2521]")
9.15

* * *

Examples of compounds with documented IC50 follow.
Target: PD-1/PD-L1 (Homo sapiens, UniProt Q9NZQ7)
Construct: TVMV protease site linker (C)
Sequence (Q9NZQ7 18-239): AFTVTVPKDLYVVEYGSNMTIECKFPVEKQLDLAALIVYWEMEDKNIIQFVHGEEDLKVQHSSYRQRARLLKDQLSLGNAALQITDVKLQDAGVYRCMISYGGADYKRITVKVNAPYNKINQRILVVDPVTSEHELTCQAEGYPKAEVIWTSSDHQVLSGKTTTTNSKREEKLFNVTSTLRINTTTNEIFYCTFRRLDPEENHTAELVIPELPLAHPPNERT
Assay: PD-1/PD-L1 Homogenous Time-Resolved Fluorescence (HTRF) binding assay
Details: PD-L1-His 10 nM, PD-1-Ig 20 nM
Property name: IC50 (nM)

>>> result("Cc1c(COc2cc(OCc3cncc(C#N)c3)c(CNCc3ncc[nH]3)cc2Cl)cccc1-c1cccc(OCC2CCCN(C)C2)c1Cl (stereo not drawn)")
1.6
>>> result("CCc1nc(CN(CCOC)Cc2cc(Cl)c(OCc3cccc(-c4cccc(OCCCN5CC[C@@H](O)C5)c4C)c3C)cc2OCc2cncc(C#N)c2)[nH]c1CC")
3.8
>>> result("Cc1c(COc2cc(OCc3cncc(C#N)c3)c(CNCc3cn[nH]c3)cc2Cl)cccc1-c1cccc(OC2CCC(N3CCCC3)CC2)c1Cl (stereo not drawn)")
9.6
>>> result("Cc1c(COc2cc(OCc3cncc(C#N)c3)c(CNCc3cn[nH]n3)cc2Cl)cccc1-c1cccc(OCC2CCCN(CCC(F)(F)F)C2)c1Cl (stereo not drawn)")
89.6
>>> result("Cc1c(COc2cc(OCc3cncc(C#N)c3)c(CN3CCCC(c4nnn[nH]4)C3)cc2Cl)cccc1-c1cccc(OCCCN2CC[C@@H](O)C2)c1C (stereo partly drawn)")
0.5
>>> result("Cc1c(COc2cc(OCc3cncc(C#N)c3)c(CN(C)Cc3ccnc(C#N)n3)cc2Cl)cccc1-c1cccc(OCCCN2CC[C@@H](O)C2)c1C")
16.4
>>> result("Cc1c(COc2cc(OCc3cncc(C#N)c3)c(CNCc3ncc(-c4ccccc4)o3)cc2Cl)cccc1-c1cccc(OCC2CCCN(C)C2)c1Cl (stereo not drawn)")
7.3
>>> result("Cc1c(COc2cc(OCc3cncc(C#N)c3)c(CN(C)Cc3nccs3)cc2Cl)cccc1-c1cccc(OCCCN2CC[C@@H](O)C2)c1C")
2.7
>>> result("Cc1c(COc2cc(OCc3cncc(C#N)c3)c(CN(C)Cc3ccnn3C)cc2Cl)cccc1-c1cccc(OCCCN2CC[C@@H](O)C2)c1C")
4.1
>>> result("Cc1c(COc2cc(OCc3cncc(C#N)c3)c(CNCCc3c[nH]cn3)cc2Cl)cccc1-c1cccc(OCCCN2CC[C@@H](O)C2)c1C")
4.8
>>> result("Cc1nc2ccc(CNCc3cc(Cl)c(OCc4cccc(-c5cccc(OCC6CCCN(C)C6)c5Cl)c4C)cc3OCc3cncc(C#N)c3)cc2[nH]1 (stereo not drawn)")
1.1
>>> result("Cc1c(COc2cc(OCc3cncc(C#N)c3)c(CN3CCc4cn[nH]c4C3)cc2Cl)cccc1-c1cccc(OCCCN2CC[C@@H](O)C2)c1C")
5.5
>>> result("Cc1c(COc2cc(OCc3cncc(C#N)c3)c(CNc3nnn[nH]3)cc2Cl)cccc1-c1cccc(OCCCN2CC[C@@H](O)C2)c1C")
4.9
>>> result("Cc1c(COc2cc(OCc3cncc(C#N)c3)c(CNCc3nc4ccccc4s3)cc2Cl)cccc1-c1cccc(OCC2CCCN(C)C2)c1Cl (stereo not drawn)")
5.9
>>> result("Cc1c(COc2cc(OCc3cncc(C#N)c3)c(CN3CCCC(c4cc[nH]n4)C3)cc2Cl)cccc1-c1cccc(OCCCN2CC[C@@H](O)C2)c1C (stereo partly drawn)")
2.5
>>> result("Cc1c(COc2cc(OCc3cncc(C#N)c3)c(CN(C)C3CCc4[nH]ncc4C3)cc2Cl)cccc1-c1cccc(OCCCN2CC[C@@H](O)C2)c1C (stereo partly drawn)")
2.7
>>> result("Cc1c(COc2cc(OCc3cncc(C#N)c3)c(CNCc3nn(C)c4ccccc34)cc2Cl)cccc1-c1cccc(OCCCN2CC[C@@H](O)C2)c1C")
0.4
>>> result("Cc1c(COc2cc(OCc3cncc(C#N)c3)c(CN(C)Cc3cc[nH]n3)cc2Cl)cccc1-c1cccc(OCCCN2CC[C@@H](O)C2)c1C")
2.5
>>> result("Cc1c(COc2cc(OCc3cncc(C#N)c3)c(CNCCc3c[nH]cn3)cc2Cl)cccc1-c1cccc(OCC2CCCN(C)C2)c1Cl (stereo not drawn)")
0.2
>>> result("Cc1c(COc2cc(OCc3cncc(C#N)c3)c(CNCc3c[nH]cn3)cc2Cl)cccc1-c1cccc(OCc2cncnc2)c1Cl")
7.6
>>> result("Cc1c(COc2cc(OCc3cncc(C#N)c3)c(CN3CCCC3c3nnn[nH]3)cc2Cl)cccc1-c1cccc(OCCCN2CC[C@@H](O)C2)c1C (stereo partly drawn)")
2.9
>>> result("CC(=O)NC1CCN(CCCOc2cccc(-c3cccc(COc4cc(OCc5cncc(C#N)c5)c(CNCc5nnn[nH]5)cc4Cl)c3C)c2C)CC1")
1.9
>>> result("CC(=O)NC1CCN(CCCOc2cccc(-c3cccc(COc4cc(OCc5cncc(C#N)c5)c(CN5CCCC5c5nnn[nH]5)cc4Cl)c3C)c2C)CC1 (stereo not drawn)")
2.1
>>> result("Cc1n[nH]c(C)c1CNCc1cc(Cl)c(OCc2cccc(-c3cccc(OCC4CCCN(C)C4)c3Cl)c2C)cc1OCc1cncc(C#N)c1 (stereo not drawn)")
1.7
